System: SW480 cells
Assay: Toxicity (growth inhibition) for SW-480 cells
Type: cell-based, human
Design: unit not given here
Experimental: Further optimization and testing of inhibitors was performed using this cell line. Table 5 presents toxicity data for select inhibitors for 4T1 cells and human colon cancer cell line SW-480, wherein GI50 is the concentration providing 50% growth inhibition and TGI is the total growth inhibition.
Bridges are numbered along the chain shown (N, C = ends). Where no end group is shown, it is not given here. The star is where a group is joined. Palmitoyl = CCCCCCCCCCCCCCCC(=O)*
For each of the substances below, state its SW480 cells TGI (total growth inhibition).

IN: Report SW480 cells TGI (total growth inhibition) for Pal-TRFLSSTLEVSLRKKY-NH2 [CT-HC-10] please.
OUT: 2.2

IN: Given the substance Pal-NKPQDYKKRLSVELTSSLFR [CT-HC-2] , what is its reported SW480 cells TGI (total growth inhibition)?
OUT: >5

IN: I'd like to know its SW480 cells TGI (total growth inhibition). The substance in question is Ac-YKKRLS+ELT+SLFR (Ac-YKKRLSXELTXSLFR; staple 7-11; not fully specified (residues 7, 11); printed as Ac-YKKRLS+ELT+SLFR) [CT-HC-9]
OUT: >5

IN: Report SW480 cells TGI (total growth inhibition) for Pal-YKKRLSVELTSSLFRTEPMAW (Palmitoyl-YKKRLSVELTSSLFRTEPMAW) [CT-HC-16] please.
OUT: >5

IN: # query: SW480 cells TGI (total growth inhibition) of entry Pal-YKKRLSVELTSSLFR (Palmitoyl-YKKRLSVELTSSLFR) [CT-HC-12]
OUT: >5

###

system: 4T1 cells; assay: Toxicity (growth inhibition) for 4T1 cells; assay type: cell-based, mouse
Bridges are numbered along the chain shown (N, C = ends). Where no end group is shown, it is not given here. [ ]: non-standard residue; d: D form. The star is where a group is joined. Palmitoyl = CCCCCCCCCCCCCCCC(=O)*; Aib = CC(C)(N)C(=O)O
Record form. Attribute: 4T1 cells TGI (total growth inhibition). Fill in for each entry.

IN: Bench note: what 4T1 cells TGI (total growth inhibition) did Pal-Aib-YKKRLSVQLTSSLFR (Palmitoyl-[Aib]YKKRLSVQLTSSLFR) [CT-HC-19] show?
OUT: > 5 µM

IN: State the recorded 4T1 cells TGI (total growth inhibition) for this entry: Lau-TRFLSSTLQVSLRKK-NH2 [CT-HC-23]
OUT: 3.5 µM

IN: Any idea what its 4T1 cells TGI (total growth inhibition) is? The substance is Pal-YKKRLSVELTSSLFRTEPMAW (Palmitoyl-YKKRLSVELTSSLFRTEPMAW) [CT-HC-16]
OUT: > 5 µM

IN: What 4T1 cells TGI (total growth inhibition) value was documented for this substance, Pal-YKKRLSVELTSSLFR (Palmitoyl-YKKRLSVELTSSLFR) [CT-HC-12] ?
OUT: > 5 µM

IN: Given the entry Pal-Aib-YKKRLSVELTSSLFR (Palmitoyl-[Aib]YKKRLSVELTSSLFR) [CT-HC-13] , report its measured 4T1 cells TGI (total growth inhibition).
OUT: > 5 µM

IN: Name the recorded 4T1 cells TGI (total growth inhibition) for Cap-TRFLSSTLQVSLRKK-NH2 [CT-HC-22] .
OUT: > 5 µM

IN: Entry Pal-NKPQDYKKRLSVELTSSLFR [CT-HC-2] has what 4T1 cells TGI (total growth inhibition)?
OUT: > 5 µM

IN: I would be grateful if you could share the reported 4T1 cells TGI (total growth inhibition) for Pal-RFLSSTLQVSLRKK-NH2 [CT-HC-20] .
OUT: > 5 µM

IN: Give the measured 4T1 cells TGI (total growth inhibition) of Pal-TRFLSSTLEVSLRKKY-NH2 [CT-HC-10] .
OUT: 2 µM

IN: Quick one: 4T1 cells TGI (total growth inhibition) for Ac-YKKRLS+ELT+SLFR (Ac-YKKRLSXELTXSLFR; staple 7-11; not fully specified (residues 7, 11); printed as Ac-YKKRLS+ELT+SLFR) [CT-HC-9] ?
OUT: > 5 µM

IN: # query: 4T1 cells TGI (total growth inhibition) of entry Pal-TRFLSSTLQVSLRKK-NH2 [CT-HC-15]
OUT: 3.6 µM

IN: Given the entry Pal-Aib-TRFLSSTLQVSLRKK-NH2 [CT-HC-11] , report its measured 4T1 cells TGI (total growth inhibition).
OUT: 3 µM
